The measured values listed here are drawn from the NTF2 design screens of Basanta et al. (2020).

# Test: protease stability score; higher = more stable; yeast display proteolysis, trypsin and chymotrypsin;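 note: log10 excess protease needed over predicted unfolded state with 0 meaning unfolded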
Okay, here is how we bin by protease stability score: low band = under 0.3, middle band = from 0.3 up to 1, high band = 1 and over

Worked cases, answers included:
Category of `DDDENKNVLKRVVDILRTGDDKKMQKLADPNARLIVGDKTYHGREDMMHWVKELKQDVDHMKVEQIEVRGERARAILVAEVNGQQRRYLLIITVHNGRLKQMEVRSQ` :
high band

Category of `DESDVERLTEIMEQNDFDQWVDQADKDAELVVGDKTLKGRETIQRWLKILSERVDHVSIKHIRNNGEEVDVKMTMIINGHRFEFVVNLTVHNGKITRFNFNFRDPDQLRRLHDQMS` :
high band

Category of `DQEQAEETQKKWQEVVEKGDEKKAKKIYDPNGQWQDADETHQGYEIVIKMMRRAQKKGIEFQVRRAEVEGDRLQVDYDMRLGDKTVTFTVQMEVQGGHVKVVRVEVTEEAKKLLKEG` :
high band

Category of `DEEHWRKIAEDFMHALRTGDPRTLRKLMDEDVQYVYGDQRVTGHEEAANRFHELRQKVDHVTVKHIEVQGNKVVIDVVMQVNGKEARMTIVIVFENGRAKVLTFDPEQIKKLEG` :
high band

Category of `DDRQQRVMEKILTAVQKGDEKKVKDQMDPNVKVHVGEFHYQGEEQLEKTLRHRTKELEIEYREITFRVDNGNVHVDVKAQLNNNGKPQQFTQHFSAEVDGDRVKTVHVEVKQ` :
low band

Category of `DERDDRQLNHLFRDLVHGDPDEADKLVDPNVQFTYGDRTYSGNDELQRLIDNWKKELHVTVKDIRVENQGDKVVIHIEMEYTHNGQPTSYKMSVRATAHNGKVKHMNMTSQS` :
low band

Category of `DEENRKILSEVLQALQEGDEHRVRELMDPNARFQVGDKVITGMDNIKKHLQELKRQIKWHFTMKSISAHDGQARATADAEYNHNGRPQDVRVTFRVVFHNGEVHHFSYDYKP` :
middle band

Category of `DNQDARKLQEYFRNMVTGNEQRAMQYMDKDVTVHVGDKVFHGMERAVKTLVQRLKEIRVHYKFKQVSVQGNKVNIKADVEEDDNGRPETKRLEMDVEWHNGKVKKVVIKNDR` :
high band

Category of `EEEVVKEVTKAAKTGNFEKLLRLADPNVEMRIGDKTFHGRTELKDALRDIKQNADHIELKSLDSHNGRLEVDLVVNVNGKDVRFILRVSVHNGRITQMSVESRDTDFKKVLDEMLG` :
high band

Category of `DESDMKRQAELFIRAVNTGDSDKVRKMADKDAHYDVGDKEIHGRENAARWVQRLREQADEVTVRDVRVQGEKVVIDVQADVNGRDVRMDLVIEFHNGKAQEVKMKHS` :
low band

Continuing:
Category of `DEEQTLRERFNTLKRAQDHNDEEDLRRMMDENVKVRIGDEDVHGRETANEQFARMLRRVDHVRLRLKTMHVHGEKYQFRFELQLTVNGRHEHRDVRIRFDNVNGRTNIVEMEVG` :
middle band

Category of `DTTTEIQRLVHDFVRKIKTGDPKEFERLVDEDARVRVGDKTVSGREEAVSHMVETAQRADTMDVNITSVSIHNGHAKVEFHLKYDHNGKDVEQTIIFVMVKRNGHFRLKEMVQK` :
high band

Category of `EEELEKEAEKFFRIVHDGNEDDLKRYMDPNVDITVGDKSLTGHSHYARRVKQKKRELRVDIKIESIKADGNRVSATVVWVNNHNGEPQSDAAEVEFNFHNGRVTHIRNDDDK` :
low band
